molecular target: hGLP-1R (Homo sapiens, UniProt P43220); assay: cell-based or functional assay
Sequence (P43220 24-463): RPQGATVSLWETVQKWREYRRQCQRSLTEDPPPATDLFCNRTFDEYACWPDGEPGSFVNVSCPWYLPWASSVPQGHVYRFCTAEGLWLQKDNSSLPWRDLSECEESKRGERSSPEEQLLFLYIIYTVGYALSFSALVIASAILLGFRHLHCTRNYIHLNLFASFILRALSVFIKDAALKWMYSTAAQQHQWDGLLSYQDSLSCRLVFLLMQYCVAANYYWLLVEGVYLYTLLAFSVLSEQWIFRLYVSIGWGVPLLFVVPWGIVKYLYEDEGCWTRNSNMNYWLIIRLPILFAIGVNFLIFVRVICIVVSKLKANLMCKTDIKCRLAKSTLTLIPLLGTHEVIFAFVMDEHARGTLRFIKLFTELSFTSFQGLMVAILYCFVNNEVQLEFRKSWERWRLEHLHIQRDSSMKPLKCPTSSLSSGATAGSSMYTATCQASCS
The entries below are paired with their reported Relative cAMP EC50.
Readout Name: Relative cAMP EC50 (nM)

# Binder, Display Unit, Reported
measured = [
    ("YXQGTFTSDXSXXLDKKAQXAFIEXLLEGGPSSGAPPPSGSEE (synthetic construct; SITE 2: note = 2-Aminoisobutyric Acid; SITE 10: note = 3-(4-Pyridyl)-L-alanine; SITE 12: note = L-ornithine; SITE 13: note = alpha-methyl-leucine; SITE 17: note = Lysine is chemically modified through conjugation of the epsilon-amino group of the Lysine side chain with (gamma-Gl)) [Example 944]", "nM", 4.86),
    ("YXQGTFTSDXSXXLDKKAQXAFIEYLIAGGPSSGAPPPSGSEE (Aib, 4Pal, Orn, αMeL, Me4Pal; acylated Lys; C-terminal amide; synthetic construct; SITE 2: note = 2-Aminoisobutyric Acid; SITE 10: note = 3-(4-Pyridyl)-L-alanine; SITE 12: note = L-ornithine; SITE 13: note = alpha-methyl-leucine; SITE 17: note = Lysine is chemically modified through conjugation of the epsilon-amino group of the Lysine side chain with (Glu)-(ga)) [Example 1060]", "nM", 2.85),
    ("YXQGTXTSDXXIXLDXKAQXXFIEXLQEGGPSSGEPPPEGTE (synthetic construct; SITE 2: note = 2-Aminoisobutyric Acid; SITE 6: note = alpha-methyl-2-fluoro-L-phenylalanine; SITE 10: note = 3-(4-Pyridyl)-L-alanine; SITE 11: note = alpha-methyl-L-serine; SITE 13: note = alpha-methyl-leucine; SITE 16: note = L-ornithine; SITE 17: note = Lysine is chemically mo) [Example 503]", "nM", 0.525),
    ("YXQGTXTSDXXIXLDXKAQXXFIEXLTEGGPSSGEPPPEGTEEE (non-natural residues; (γGlu)2-C18 diacid on Lys; C-terminal amide; synthetic construct; SITE 2: note = 2-Aminoisobutyric Acid; SITE 6: note = alpha-methyl-2-fluoro-L-phenylalanine; SITE 10: note = 3-(4-Pyridyl)-L-alanine; SITE 11: note = alpha-methyl-L-serine; SITE 13: note = alpha-methyl-leucine; SITE 16: note = L-ornithine; SITE 17: note = Lysine is chemically mo) [Example 598]", "nM", 0.886),
    ("YXQGTFTSDFSXXLDKKAQXAFIEYLLEGGPSSGEPPPSGS (synthetic construct; SITE 2: note = 2-Aminoisobutyric Acid; SITE 12: note = L-ornithine; SITE 13: note = alpha-methyl-leucine; SITE 17: note = Lysine is chemically modified through conjugation of the epsilon-amino group of the Lysine side chain with (2-[2-(2-Amino-ethoxy)-ethoxy]-acetyl)-(gamma-Glu)) [Example 131]", "nM", 5.51),
    ("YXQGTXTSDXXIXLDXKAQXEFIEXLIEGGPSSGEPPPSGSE ((γGlu)2-C18 diacid on Lys; non-natural residues; amide; synthetic construct; SITE 2: note = 2-Aminoisobutyric Acid; SITE 6: note = alpha-methyl-L-phenylalanine; SITE 10: note = …; SITE 11: note = alpha-methyl-L-serine; SITE 13: note = alpha-methyl-leucine; SITE 16: note = L-ornithine; SITE 17: note = Lysine is chemically modified th) [Example 1173]", "nM", 0.604),
]

Taken from patent US20240270821A1.
